All figures here come from patent US20230002757A1.

- TARGET_DESC: T1, PD-1 protein (human, UniProt Q15116 25-167, limits assumed)
- T1 construct: also called human PD-1
- TEST_DETAILS: ELISA, PD-1 coated
- Method: 2 μg/ml of PD-1 protein is coated on 96-well plates overnight for ELISA binding assay. Recombinant VHH-FC proteins are added to the wells and allowed to stand for a period of time, then 1 μg/ml of HRP-conjugated anti-FC antibody is added as detection antibody and the assay reagents are added. The absorbance is read at 450 nm. Binding of nivolumab serves as a positive control and plates coated with BSA are used as the negative control group.
ASSAY_METRIC: OD450 at 0.02 µg/mL (OD450)
The answer is to be given in OD450; state only the numeric part.

Check out these entries, answers already filled in.
| BINDER | UNIT_OF_MEASURE | ASSAY_RESULT |
| --- | --- | --- |
| 504#SS29 (Fc fusion, not shown: a dimerising Fc or GST; small tags and cut ends, VHH-FC construct from HEK293 cells) VHH: QVQLVESGGGLVQAGGSLRLSCAASGRTFSGYTMGWFRRAPGKERELIANILWNSARRYYADSVKGRFTISRDNAMNTVDLQMNSLKPEDTAVYYCAVLVDSTYRFSNQGTQVTVSS | OD450 | 0.04 |
| 504#SS22 (Fc fusion, not shown: a dimerising Fc or GST; small tags and cut ends, VHH-FC construct from HEK293 cells) VHH: QVQLVETGGGLVQAGGSLRLSCAASGRTFSSYAMGWFRQAPGKERDFVAGISGSGGNTPYAESVKGRFTISRDNAKNTVALQMNSLKPEDTAVYYCAAKFTSSSFYYRSPREYSSWGQGTQVTVSS | OD450 | 0.03 |
| 504#SS7 (Fc fusion, VHH-FC construct from HEK293 cells; not shown: The (G4S)3 linker leading to it is left out with it) VHH: QVQLVESGGGLVQAGGSLTLSCAASGRTFNSYAMGWFRQAPGKEREFVAAISQNGGSQGYAEAVKDRFTISRDNTNKVVALQMNSLKPEDTAAYYCAADGDASDRSYAPPRDYKYEYWGQGTQVTVSS | OD450 | 0.05 |

Proceed to the following item.
Documented OD450 at 0.02 µg/mL of 504#SS15 (Fc fusion, not shown: a dimerising Fc or GST; small tags and cut ends, VHH-FC construct from HEK293 cells) VHH: QVQLVESGGGLVQPGGSLRLSCAASGFTFSNYAMTWYRQAPGKERELVAAISSAGYTTTYAGSVKGRFTISRDNAKNTVYLQMNSLNPEDTAVYYCNAGRLSYGGSYYPNDDYWGQGTQVTVSS : 0.04
